Sourced from patent US20200002421A1

Molecular target: T1, human B7-H3 (Homo sapiens, UniProt Q5ZPR3)
T1 construct: His tag (6xHis) (C)
T1 sequence (Q5ZPR3 with tags, fused parts or gaps): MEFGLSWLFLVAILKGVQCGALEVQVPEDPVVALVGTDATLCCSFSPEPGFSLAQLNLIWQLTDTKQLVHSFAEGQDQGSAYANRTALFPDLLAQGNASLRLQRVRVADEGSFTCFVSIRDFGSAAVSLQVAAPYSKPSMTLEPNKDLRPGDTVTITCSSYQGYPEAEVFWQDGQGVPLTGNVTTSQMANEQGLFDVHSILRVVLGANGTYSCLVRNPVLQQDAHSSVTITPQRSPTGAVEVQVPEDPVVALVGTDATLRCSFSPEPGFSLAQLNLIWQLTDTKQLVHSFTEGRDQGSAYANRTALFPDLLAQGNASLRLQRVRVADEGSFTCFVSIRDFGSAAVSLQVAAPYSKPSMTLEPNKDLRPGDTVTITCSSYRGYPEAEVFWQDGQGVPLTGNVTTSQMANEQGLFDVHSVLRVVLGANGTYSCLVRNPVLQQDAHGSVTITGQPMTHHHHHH
Test: Epitope grouping by pair-wise Biacore SPR binding
Conditions: simultaneous binding assay, FIG. 1
Quantity name: epitope grouping

Molecule	Quantity name	Value
Ab8: mouse hybridoma anti-B7-H3 monoclonal antibody, mouse IgG1/k (antibody, V domains shown) VH: EVKLVESGGGLVKPGGSLKLSCAASGFTFSSYGMSWVRQTPEKRLEWVATISGGGNYTYCPDSVKGRFTISRDNAKNNLYLQMSSLRSEDTALYYCTRQRGYDYHYAMDFWGQGTSVTVSS VL: DIQMTQSPASLSVSVGETVTITCRASENIYSNLAWHQQKQGKSPQLLVYAATNLADGVPSRFSGNGSDTQYSLKINSLQSEDFGSYFCQNFWGTSWTFGGGTKLEIK	epitope grouping	ambiguous
Ab5: mouse hybridoma anti-B7-H3 monoclonal antibody, mouse IgG1/k (antibody, V domains shown) VH: QVQLQQPGDELVKPGASVKLSCKTSGYTFTTDWMHWVKQRPGQGLEWIGMIHPNSGTTNYNEKFKSKAALTVDKSSSTACMQLSSLTSEDSAVYYCARSYWKWYFDVWGTGTTVTVSS VL: QIVLTQSPAIMSASLGEEITLTCSASSSVSYMHWYQQKSGTSPKLLIYSTSNLASGVPSRFSGSGSGTFYSLTISSVEAEDSADYYCHQWTSYMYTFGGGTKLEIK	epitope grouping	ambiguous
Ab4: mouse hybridoma anti-B7-H3 monoclonal antibody, mouse IgG2b/k (antibody, V domains shown) VH: QVQLQQPGAELVKPGASVKLSCKASGYSFTSYWMHWVKQRPGQGLEWIGMIHPNSGSNNYNEKFKSKATLTVDKSSNTAYMQLSSLTSEDSAVYYCARRLGLHFDYWGQGTTLTVSS VL: DIVMTQSQKFMSTPVGDRVSITCKASQNVGTAVAWYQQKPGQSPKLLIYSASNRYTGVPDRFTGSGSGTDFTLTISNMQSEDLADYFCQQYSSYPYTFGGGTKLEIK	epitope grouping	ambiguous
